Data origin: patent US8338481B2

Tested on: U87 cells (human glioblastoma cell line)
Test: Inhibition of U87 cell growth (cell counting)
Assay type: cell-based
Settings: Homo sapiens, U-87 MG, 120 h; U-87 cells, incubated five days, live cells counted as percentage of control; read-out: IC50 (concentration causing 50% inhibition of cell growth)
Observation type: IC50 (µM)
Write it as a number; the unit µM goes unstated.

Tested on U87 cells (human glioblastoma cell line), the item COCOC(=O)c1ccccc1SC/C=C(\C)CC/C=C(\C)CCC=C(C)C [FTS-MOME, methoxymethyl S-farnesylthiosalicylate] showed IC50 equal to 15

---

Test system: Panc-1 cells (human pancreatic carcinoma cell line)
Assay: Inhibition of Panc-1 cell growth (cell counting)
Format: cell-based
Settings: Homo sapiens, 120 h, incubated five days, live cells counted as percentage of control, read-out: IC50 (concentration causing 50% inhibition of cell growth)
Observation type: pIC50
In textbook form, pIC50 equals minus log to base ten of the concentration in mol/L.

Value (pIC50, Panc-1 cells (human pancreatic carcinoma cell line)) for record COCOC(=O)c1ccccc1SC/C=C(\C)CC/C=C(\C)CCC=C(C)C [FTS-MOME, methoxymethyl S-farnesylthiosalicylate] = 4.82
